Each record here notes measured GI50.
System: EKVX
PROCEDURE_DETAILS: NCI tumour cell line growth inhibition, 48 h
Calls of active or inactive are those of the source. No stated cut-off is given here; in the data, active = GI50 up to about 1.1 µM and inactive = higher.

input: Data request, read-out GI50, for O=c1[c-](-c2ccccc2)[se]c(-c2ccccc2)[n+]1-c1ccccc1
output: 13.5 µM (inactive)

----------
Reported GI50 is given for each of the following compounds.
Tested on: EKVX
PROCEDURE_DETAILS: NCI tumour cell line growth inhibition, 48 h
Activity calls are given as the source filed them. Rule as the data show it: active = GI50 up to about 1.1 µM and inactive = higher.

The following compounds have reported results that may help.
COMPOUND	OBSERVED_MEASUREMENT
O=C(/C=C1\N=C(c2ccccc2)N(c2ccc3c(c2)Sc2cc(N4C(=O)/C(=C/C(=O)/C=C/c5ccccc5)N=C4c4ccccc4)ccc2N3)C1=O)/C=C/c1ccccc1	85.7 µM (inactive)
O=C1CCc2cc3c(cc21)C(C(=O)O)CC3 (stereo not given)	> 100 µM (inactive)
O=c1c2cc(I)ccc2nc(Sc2ncccc2[N+](=O)[O-])n1Cc1ccccc1	17.7 µM (inactive)
CSc1nc(CO)c(CO)n1C	> 100 µM (inactive)
CSc1c(C(=O)Nc2ccc(C)cc2)c(N)n(N)c(=O)c1C#N	> 100 µM (inactive)
Cc1ccc(-c2nc(Cc3n[nH]c(-c4ccc(C)cc4)n3)n[nH]2)cc1	> 100 µM (inactive)

input: Suppose we examine the compound C[S+](C)C1(c2ccccc2)C(=O)c2ccccc2C1=O ; what GI50 value has been reported?
output: 34 µM (inactive)

input: // returns reported GI50 for input COc1cc(C2C(Cl)C(=O)N2NC(=O)c2ccc(N)cc2)cc(Br)c1O (stereo not given)
output: 13.2 µM (inactive)

input: Entry OCC1OC(n2cnc3c(SCc4ccccc4)ncnc32)C(O)C1O (stereo not given) has what GI50?
output: > 68.5 µM (inactive)

input: So what does the record say about GI50 for CCOC(=O)c1ccc(NCC#CCN2CCOCC2)cc1 ?
output: 57.9 µM (inactive)

----------
Test system: RXF 631
PROCEDURE_DETAILS: NCI tumour cell line growth inhibition, 48 h
Activity calls are given as the source filed them. Cut-off read from the data, not from the text of the source: active = GI50 up to about 1.1 µM and inactive = higher.
Overview of reported GI50 across a group of compounds:

COMPOUND	EXPERIMENTAL_TARGET	READOUT_KIND	OBSERVED_MEASUREMENT
O=C(Nc1ccc(Cl)cc1Cl)OC(Cn1cncn1)c1ccc(Cl)cc1Cl (stereo unspecified)	RXF 631	GI50	18.2 µM (inactive)

input: Look up GI50 for this compound: CC[P+](C)(C)CC
output: > 100 µM (inactive)

input: I am curious: what GI50 value has been reported for COc1ccc2nccc(C3OC(=O)N4CCC(=O)CC34)c2c1 (stereo unspecified) ?
output: > 100 µM (inactive)

input: # get_value(readout='GI50', item= CCOC(=O)C1=NC(c2ccccc2)(c2ccccc2)OC1=C(Cl)Cl )
output: 50.9 µM (inactive)

input: Data request, read-out GI50, for O=C(NC(=O)c1cn(CCN(CCO)C(=O)NCCCCCCNC(=O)N(CCO)CCn2cc(C(=O)NC(=O)OCc3ccccc3)c(=O)[nH]c2=O)c(=O)[nH]c1=O)OCc1ccccc1
output: > 100 µM (inactive)

input: Quick one: GI50 for COc1cccc(NC(=O)C(=O)C(C(C)=O)c2nc3ccc(Cl)cc3nc2O)c1 (stereo unspecified) ?
output: > 100 µM (inactive)

----------
Tested on: K562
PROCEDURE_DETAILS: NCI tumour cell line growth inhibition, 48 h
The source made the active and inactive calls. Cut-off read from the data, not from the text of the source: active = GI50 up to about 1.1 µM and inactive = higher.
In this section we review reported GI50 values for a set of compounds.

COMPOUND	GI50
COc1ccc2c(c1O)-c1cc(O)cc3c1[C@@H](C2)N(C)CC3	67.6 µM (inactive)
C=CCOCn1ccc(N)nc1=O	> 100 µM (inactive)
COc1cc(OC)cc(-c2cc(O)c3cc4c(cc3n2)OCO4)c1	0.15 µM (active)
COC(=O)c1ccc(NCC2=CC(=O)C=CC2=O)cc1	2.69 µM (inactive)

input: For the compound shown here, CS/C(=N/C#N)NCCc1c[nH]c2ccccc12 , give the reported GI50.
output: 67 µM (inactive)

input: Endpoint output: GI50 of Cc1cc(-c2[nH]c(C(=O)O)cc2I)on1 . Value?
output: > 100 µM (inactive)

input: Please give the measured GI50 for this compound: COc1ccc(C2=CC(C(C)=C(C(N)=O)C(N)=O)C=C(c3ccc(Br)cc3)C2)c(OC)c1 (centres undefined)
output: > 100 µM (inactive)

input: GI50 lookup needed for COCC(/N=C\N1CCCc2ccccc2[C@@H]1CCCCl)C(C)(C)C (some centres undefined) , thanks.
output: 0.512 µM (active)

input: Which GI50 reading was recorded for the compound CC(C)(c1ccc(C=O)o1)c1ccc(C(C)(C)c2ccc(C=O)o2)o1 ?
output: > 100 µM (inactive)

input: I'd like to know its GI50. The compound in question is O=C(c1ccccc1)N1CCC(CC2(c3cc4ccccc4[nH]3)OCCO2)CC1
output: 16.3 µM (inactive)

input: Consider the compound N#CCc1ccc(/C(C#N)=C2/OC(=N)C(c3ccc(CC#N)cc3)C2=O)cc1 (centres undefined) and give its measured GI50.
output: > 100 µM (inactive)

----------
System: SF-295
PROCEDURE_DETAILS: NCI tumour cell line growth inhibition, 48 h
Activity calls are given as the source filed them. Rule as the data show it: active = GI50 up to about 1.1 µM and inactive = higher.
READOUT_KIND: GI50

COMPOUND	READOUT_KIND	OBSERVED_MEASUREMENT
N#CC(C#N)C(c1ccccc1)c1ccccc1	GI50	> 100 µM (inactive)
COc1ccccc1NS(=O)(=O)c1ccc2ncn(NS(=O)(=O)c3ccc(Cl)cc3)c(=O)c2c1	GI50	17.7 µM (inactive)
COc1ccc(NC/C=C/C(=C/COC(C)=O)OC(C)=O)cc1	GI50	2.12 µM (inactive)

Turning to the following compound.
input: I am curious: what GI50 value has been reported for CC(C)(C)N1CC2(CCCCC2)C1=O ?
output: > 100 µM (inactive)

----------
Test system: M19-MEL
PROCEDURE_DETAILS: NCI tumour cell line growth inhibition, 48 h
Active and inactive are the calls of the source. Cut-off read from the data, not from the text of the source: active = GI50 up to about 1.1 µM and inactive = higher.
Please state which outcome applies, choosing from active, inactive

For orientation, consider the following solved cases.
COMPOUND	ASSIGNED_CATEGORY
CCCCCCCCCc1cc(=O)c2c(O)cccc2o1	inactive
Nc1ncnc2c1nnn2C1C=C(CO)C(O)C1O (stereo not given)	inactive
CCCC(=O)OC1C(C(O)CO)OC2OC(C)(C)OC21 (stereo not given)	inactive
CC(=O)OCC1OC(n2cc(F)c(=O)[nH]c2=O)C(NC(=O)N(CCCl)N=O)C(OC(C)=O)C1OC(C)=O (stereo not given)	inactive
Cc1cc(NCCCCCCNc2cc(C)nc3ccc(Cl)cc23)c2cc(Cl)ccc2n1	inactive

input: What is the recorded call for this compound in the test? O=S(O)CCCSSc1ccccc1
output: inactive

input: What outcome does the record of this test show for C=C1C(=O)O[C@H](c2ccoc2)C[C@@H]1[C@@]1(C)CCCC2(C)C(=O)OCC21 (stereo not given in full) ?
output: inactive

input: What is the recorded call for this compound in the test? COc1c(C)c2c(c(C)c1Cl)Oc1c(C=O)c(O)c(Cl)c(C)c1C(=O)O2
output: inactive

input: Which outcome did this test record for the compound COC1/C=C\C=C(/C)C(=O)NC2=CC(=O)C(NCCCl)=C(CC(C)CC(OC)C(O)C(C)/C=C(/C)C1OC(N)=O)C2=O (stereo not given) ?
output: active

input: What is the recorded call for this compound in the test? Cc1cn(C2CC(O)C(CO)O2)c(=O)n2nnnc12 (stereo not given)
output: inactive

input: Record request — test call for COc1ccccc1-c1csc(CCC(N)C(=O)O)n1 (stereo not given)
output: inactive

input: Just curious, what result did O=C1C=CC(=O)c2c1c1c(c3c2C2c4ccccc4C3c3ccccc32)C2c3ccccc3C1c1ccccc12 get here?
output: inactive

input: GET /call?item= O=C(C(=O)c1ccc(Cc2ccc(C(=O)C(=O)c3ccccc3)cc2)cc1)c1ccccc1 returns the recorded outcome of this test.
output: inactive

----------
System: UACC-257
PROCEDURE_DETAILS: NCI tumour cell line growth inhibition, 48 h
The source made the active and inactive calls. No stated cut-off is given here; in the data, active = GI50 up to about 1.1 µM and inactive = higher.
Respond with a class label; see 1 (active), -1 (inactive)

Field: example entries. Status: answers known.
MOLECULE	ASSIGNED_CATEGORY
COc1ccc2c(c1O)-c1cc(O)cc3c1[C@@H](C2)N(C)CC3	-1
CCCCCCNC(=O)c1cc(NCc2cc(OC)ccc2OC)ccc1O	-1

input: For CCOC(=O)Nc1cc2nnc(-c3ccccc3)nc2c(N)n1 , which call appears in the assay record?
output: -1

input: Hey, what did the test say about C[C@H](NC(=O)n1c2ccccc2c2ccccc21)C(=O)O ?
output: -1

input: Would you mind telling me which call this test gave CCCSC1=N/C(=C\c2ccco2)C(=O)N1 ?
output: -1

input: Test call for this molecule, please: COC1/C=C\C=C(/C)C(=O)NC2=CC(=O)C(NCCCl)=C(CC(C)CC(OC)C(O)C(C)/C=C(/C)C1OC(N)=O)C2=O (stereo unspecified)
output: 1

input: Please let me know the test result on file for CCOC(=O)C1S/C(=N\c2ccc(OC)c(OC)c2)N=C1C (stereo unspecified) .
output: -1

Cited source: ChEMBL document CHEMBL1201862
